Provide the recorded Ratio EC50 for the entries that follow.
test: Resistant factor, ratio of EC50 for antiviral activity against HIV-1 IIIB harboring reverse transcriptase E138K mutant to EC50 for antiviral activity against wild type HIV-1 IIIB; assay type: functional
Numbers only.

Record excerpt, results attached:
{"testSmiles": "Cc1cc(-c2ccc(C#N)cc2)cc(C)c1Oc1nc(Nc2ccc(C#N)cc2)ncc1C(N)=O", "observable": "Ratio EC50", "recordedResult": 2.4}
{"testSmiles": "C#CCNC(=O)c1cnc(Nc2ccc(C#N)cc2)nc1Oc1c(C)cc(-c2ccc(C#N)cc2)cc1C", "observable": "Ratio EC50", "recordedResult": 2.3}
{"testSmiles": "COCCNC(=O)c1cnc(Nc2ccc(C#N)cc2)nc1Oc1c(C)cc(-c2ccc(C#N)cc2)cc1C", "observable": "Ratio EC50", "recordedResult": 3.5}

Here are 2 compounds. What values of Ratio EC50 were reported for them?
1. CONC(=O)c1cnc(Nc2ccc(C#N)cc2)nc1Oc1c(C)cc(-c2ccc(C#N)cc2)cc1C
2. N#Cc1ccc(Nc2ncc(C(N)=O)c(Oc3ccc(-c4ccc(C#N)cc4)cc3F)n2)cc1

Output:
1. 2.6
2. 9.9

---

experiment: Selectivity index, ratio of CC50 for cytotoxicity against human MT4 cells to EC50 for antiviral activity against wild type HIV-1 IIIB infected in human MT4 cells; type: toxicity, cell-based; conditions: read-out: Ratio CC50/EC50
observable: selectivity ratio

Reference set, count: 5
{"testSmiles": "Cc1cc(-c2ccc(C#N)cc2)cc(C)c1Oc1nc(Nc2ccc(C#N)cc2)ncc1C(=O)NC1CCCC1", "selectivity ratio": "> 1630"}
{"testSmiles": "Cc1cc(-c2ccc(C#N)cc2)ccc1Oc1nc(Nc2ccc(C#N)cc2)ncc1C(N)=O", "selectivity ratio": "> 9000"}
{"testSmiles": "Cc1cc(-c2ccc(C#N)cc2)cc(Cl)c1Oc1nc(Nc2ccc(C#N)cc2)ncc1C(N)=O", "selectivity ratio": "> 1270"}
{"testSmiles": "CCONC(=O)c1cnc(Nc2ccc(C#N)cc2)nc1Oc1c(C)cc(-c2ccc(C#N)cc2)cc1C", "selectivity ratio": "> 44200"}
{"testSmiles": "Cc1cc(-c2ccc(C#N)cc2)cc(C)c1Oc1nc(Nc2ccc(C#N)cc2)ncc1C(N)=O", "selectivity ratio": "> 2760"}

Record selectivity ratio per entry; entries follow.
1. N#Cc1ccc(Nc2ncc(C(N)=O)c(Oc3ccc(-c4ccc(C#N)cc4)cc3Cl)n2)cc1
2. Cc1cc(-c2ccc(C#N)cc2)cc(C)c1Oc1nc(Nc2ccc(C#N)cc2)ncc1C(=O)NC1CCCCC1

Output:
1: > 2650; 2: > 1320

---

biological target: Human immunodeficiency virus type 1 reverse transcriptase (Human immunodeficiency virus 1, UniProt Q72547); assay: Inhibition of recombinant wild type HIV-1 reverse transcriptase using DNA/RNA as substrate incubated for 40 mins by Pico-green dye based spectrofluorometric analysis
observable: IC50 (nM)
Give bare numbers, in nM.

# count of solved cases: 2
{"testSmiles": "Cc1cc(-c2ccc(C#N)cc2)cc(Cl)c1Oc1nc(Nc2ccc(C#N)cc2)ncc1C(N)=O", "recordedResult": 66}
{"testSmiles": "COCCNC(=O)c1cnc(Nc2ccc(C#N)cc2)nc1Oc1c(C)cc(-c2ccc(C#N)cc2)cc1C", "recordedResult": 128}

Attention now turns to another entry.
Input: // IC50 lookup, key: C#CCNC(=O)c1cnc(Nc2ccc(C#N)cc2)nc1Oc1c(C)cc(-c2ccc(C#N)cc2)cc1C
Output: 72
